assay: label from the status in PepcDB records
Readout Type: protein production

Sequence Record: MGKALLIVNPSSGKEKGKTYQGKTEEVLKKRYDEVEVRLTEKAGDATEFASWASEQGFDAVIAMGGDGTLNETINGLAIHEKRPDFGFIPLGTVNDLARSVGIPLKPEKAIQALEKAKAIPMDIGRIGDQYFMNVLAIGMIAQAVDQVSVEQKTKFGSVAYFLEGLKAFNRNELLHFKLEYDEEVWEGEAALVVAGLTKSVGGMESWAPDAKIDDGYLHVVVLTKLGLLDAANMIPQLIRGNLKNSDGVVYIKTKKLTIDASGDDLSINVDGDPGPGVPAEIEVLGSHLNILAPKKSSQKRFGPFILKK
Value Reported: failed
//
Sequence Record: MSSVGDFEEIILHDLKPYYHVPGAIHSEGITFVKETGTLLWVDIFKGEVHKVEDIEQPESSHSFFSISRANYGKNASIEYPPNPDELKESVGCIFPILDGASQNEIKQVLFGSKFGIGKLDFSKSEWEYVILYSECPELSTDRAYKLRSNDGNVSPDGKYIYVGLMSDFPFDLEPIGCLLRVDLLAHKIELVWNCLLIPNAIHWDESDQKTMYVTDSLNFTIWKCPGGDLLKRDELIDVKNSNNQSFESPEPDGSAIWFSKDGKHSGFLFITVWSTSKVQMFDLTNGKLLKEFILPEQTPRVSCCCFVGKDLFVTTANAEINDAVRTNTDKNGGCIYKIPNVLDGNVPLESTKRQPLH
Value Reported: failed
//
Sequence Record: KKKSIPQPTNALKSFNWSKLPENKLEGTVWTEIDDTKVFKILDLEDLERTFSAYQRQQDFFVNSNSKQKEADAIDDTLSSKLKVKELSVIDGRRAQNCNILLSRLKLSNDEIKRAILTMDEQEDLPKDMLEQLLKFVPEKSDIDLLEEHKHELDRMAKADRFLFEMSRINHYQQRLQSLYFKKKFAERVAEVKPKVEAIRSGSEEVFRSGALKQLLEVVLAFGNYMNKGQRGNAYGFKISSLNKIADTKSSIDKNITLLHYLITIVENKYPSVLNLNEELRDIPQAAKVN
Value Reported: failed
//
Sequence Record: MEHREKCTRCGQCLEVCSRYEDLGVLDRLYGYLDGSSNIDSESLLRCLTCGLCISACPENLGIKPLISPSRQKWINENGLSERLEHHHHHH
Value Reported: failed
//
Sequence Record: MGTKKNFVLDTNVILHDYNCLKNFQENDIYLPIVVLEELDKFKKGNEQINYNAREFVRELDLITDDSLFTHGAPLGEGLGKLFIVTGDSEAPKVHESFPARKPDHQILAVAEYLARKYPKMKNILVTKDVNLRMKARSIGILCEDYITDKVVNVDIFE
Value Reported: failed
//
Sequence Record: MDFNPIDLILHLDTYLAMLVSNYGVWIYAILFLVIFCETGLVVTPFLPGDSLLFIAGAICATGGMDPWLLGGLLMVAAITGDSTNYVIGRTLGKRLFSNPDSKVFRRDYLDRTHEFYERHGGKTVTLARFLPIVRTFAPFVAGMAKMHYPRFVMFSVVGTVAWVGGLVTLGYFFGNVPFIKKNLSLLVIGIILLSLLPMILGFIRHRLQASAAKQAKAQSD
Value Reported: failed
//
Sequence Record: MAPRQLAAADLAVGQVVAQREIRLDAQAFAQFAALTGDAHPIHYDAGYVQRQGLRAPIAHGLLLVAISALGATPLSAQLHDAMVAMVGVEAVFMRPVYVDETVQCVYRVAQIEHVAKGRSKTTIAVSIHTTDAPPDAARQAHCVVHLTFLLKTHLQGLEHHHHHH
Value Reported: failed
//
Sequence Record: MDKFSDMTMFVSIVKHQGLAAAGRELGLSPATMTARLQALEERYRVKLLNRSTRHVSLTDAGELYYKASLEILDNVNETENLILNGVKEVKGALRVAAPKDIGKQYILPILSEFCEKYPDVVPYLYLNDDVSNIAESGIDIVVRYGELADSSLISRRLSSSHRVLCASPDYLAKYGTPLTPQDLINHHCLAMVRSHEELKTWHFQGSDKKNVITVLPKRFSDDGEVVRYWALEGAGIALKSILDVQDDINNRRLVTVLNGYMANFNTSTSVSSADLNVVYMSKKYQPKRIRLFLDFLLERFETMKNGGK
Value Reported: not failed

What value of protein production has been recorded for this entry: `MNLETIPSGELTVSNQRSISRLVAQAGQMLLAHGAESTLVCDIMRRIGLACGVHEVAVALSANALVVTTVMDGHCITTTRSCADRGINMRVITQIQRICIMMERGLLDAAMAQKKLNTISPERYNRWLVVLMIGLSCAAFSHLAGGDWGVFIMTFLASAGGMIVRQEIGHRHFNPLLNFAATAFVTTLISAQAEIYQIGNLPTVAMASSVLMLVPGFPLINSVADMLKGHINMGIARFVMASLLTLATCLGIVAAMSVTGIWGWAI`
failed

What value of protein production has been recorded for this entry: `MGNHKAALTKQVFTFASELYAYGVREVVISPGSRSTPLALAFEAHPNIKTWIHPDERSAAFFAVGLIKGSERPVAILCTSGTAAANYTPAIAESQISRIPLIVLTSDRPHELRSVGAPQAINQVNMFNNYVSYEFDMPIADDSKETINAIYYQMQIASQYLYGPHKGPIHFNLPFRDPLTPDLNATELLTSEMKILPHY`
failed

What value of protein production has been recorded for this entry: `MTQRRAMLILHGKQSLNEDVRDAVADKRKQGWELDVRLTWEAGDAQRLVNEALAAGHRHIVAGGGDGTLRDIAEALALAATKASLTILPLGTANDFARAAGVPLDVSKALQLMDVAPRAVDLGEVGGKLFLNMATGGFGSQVTANTSEDLKKVLGGAAYLFTGLTRFSELHAAHGELTGPDFHWRGDLLALGIGNGRQAGGGHELCPTALADDGLLDISILPAPQEVVGTLRSLLEGGLGIDNMFIRARLPWVELKSAQGLDINLDGEPLSGEDLRFVARPGALQVHLPANSPVLGSTPLLNRPD`
not failed

What value of protein production has been recorded for this entry: `MTGALVSSEMMARAAAAAGLSDEADRPGPAPLASPSYLALESASILTDGGVFLKVMHPEMRQDFDLGAAMALARQAGEAGIGPRVLWADPAQGAIAMEALTEAGGWRRAMQVDLQEAPVLGAAMSALKALHATPALSSRFDPFAQIDGLIADYSRLGAPLPEDTGWLRRLIGAAEPVLRTGADLAPCRNDGAASNLMLGPGGAVRLVDYDRAGMNDPLYDVGALLAETTDFEREMQAGFAAYAGAFDEVAFARARLWSFVDDMLHALWSRLKARTSARGGVEWLKYGEWRLMRLRMALNHPQYEQKIRLAGGAA`
failed
